For Neutrophil collagenase (Homo sapiens, UniProt P22894), measured pIC50 is reported for the entries below.
Lab note — pIC50 values are minus log10 of concentrations in M.

Below: 2 compounds and their reported pIC50.
* O=C(CC[C@H](NS(=O)(=O)c1ccc(-c2ccccc2)cc1)C(=O)O)NCc1ccccc1Cl | 7.41
* O=C(CC[C@H](NS(=O)(=O)c1ccc(-c2ccccc2)cc1)C(=O)O)NCc1ccccc1 | 7.67

Shift focus to the following entry.
Tell me the measured pIC50 of CC(C)CNC(=O)CC[C@H](NS(=O)(=O)c1ccc(-c2ccccc2)cc1)C(=O)O , please.
6.65

---

- Test system: A549
- procedure.summary: cells
- Type: functional, cell-based
- condition.info: Homo sapiens, A549, 48 h
- Description: Cytotoxicity against human A549 cells assessed as cell viability after 48 hrs by MTT assay
observable: pIC50
Lab note — pIC50 values are minus log10 of concentrations in M.

Tell me the measured pIC50 of O=C(CC[C@H](NS(=O)(=O)c1ccc(-c2ccccc2)cc1)C(=O)O)NCc1cc(C(F)(F)F)cc(C(F)(F)F)c1 , please.
3.57

---

pIC50 overview
- target.entity: Matrix metalloproteinase-14 (Homo sapiens)
Lab note — pIC50 values are minus log10 of concentrations in M.

Below: 3 compounds and their reported pIC50.
- O=C(CC[C@H](NS(=O)(=O)c1ccc(-c2ccccc2)cc1)C(=O)O)NCc1cc(C(F)(F)F)cc(C(F)(F)F)c1: 5.20
- CCCCNC(=O)CC[C@H](NS(=O)(=O)c1ccc(-c2ccccc2)cc1)C(=O)O: 5.33
- O=C(CC[C@H](NS(=O)(=O)c1ccc(-c2ccccc2)cc1)C(=O)O)NCc1ccc(F)cc1: 5.27

Shift focus to the following entry.
# query: pIC50 | item CC(C)CNC(=O)CC[C@H](NS(=O)(=O)c1ccc(-c2ccccc2)cc1)C(=O)O | system: Matrix metalloproteinase-14 (Homo sapiens)
5.06

---

- target.entity: Matrix metalloproteinase-9 (Homo sapiens, UniProt P14780)
- Sequence (P14780 whole entry): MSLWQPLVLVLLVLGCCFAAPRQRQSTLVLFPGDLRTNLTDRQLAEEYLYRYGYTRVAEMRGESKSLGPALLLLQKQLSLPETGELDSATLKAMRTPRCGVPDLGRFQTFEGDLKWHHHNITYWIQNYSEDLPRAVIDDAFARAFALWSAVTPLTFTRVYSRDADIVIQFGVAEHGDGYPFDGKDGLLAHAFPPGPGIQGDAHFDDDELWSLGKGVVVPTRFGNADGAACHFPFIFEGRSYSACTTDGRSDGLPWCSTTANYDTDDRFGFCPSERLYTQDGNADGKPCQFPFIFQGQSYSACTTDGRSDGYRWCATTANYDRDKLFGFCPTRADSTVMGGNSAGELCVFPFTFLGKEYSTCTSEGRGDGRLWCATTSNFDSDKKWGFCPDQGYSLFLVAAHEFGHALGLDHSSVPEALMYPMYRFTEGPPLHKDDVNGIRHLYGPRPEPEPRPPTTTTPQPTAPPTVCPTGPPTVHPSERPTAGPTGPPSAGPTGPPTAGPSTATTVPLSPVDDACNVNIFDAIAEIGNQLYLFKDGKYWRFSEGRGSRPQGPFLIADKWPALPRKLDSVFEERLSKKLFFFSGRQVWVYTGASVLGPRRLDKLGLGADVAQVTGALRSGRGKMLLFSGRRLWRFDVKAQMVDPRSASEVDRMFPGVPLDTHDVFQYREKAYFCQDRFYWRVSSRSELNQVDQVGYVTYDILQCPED
Entries whose IC50 is below 7 µM take T; entries at or above 7 µM take F.

Recorded results for 3 compounds are shown here.
• O=C(CC[C@H](NS(=O)(=O)c1ccc(-c2ccccc2)cc1)C(=O)O)NC1CCCCC1 = T
• CCNC(=O)CC[C@H](NS(=O)(=O)c1ccc(-c2ccccc2)cc1)C(=O)O = F
• CC(C)CNC(=O)CC[C@H](NS(=O)(=O)c1ccc(-c2ccccc2)cc1)C(=O)O = F

Please check: IC50 for CNC(=O)CC[C@H](NS(=O)(=O)c1ccc(-c2ccccc2)cc1)C(=O)O , strictly under 7 µM or not?
F

Please check: IC50 for O=C(CC[C@H](NS(=O)(=O)c1ccc(-c2ccccc2)cc1)C(=O)O)NCc1ccc(F)cc1 , strictly under 7 µM or not?
T

Please check: IC50 for O=C(CC[C@H](NS(=O)(=O)c1ccc(-c2ccc(Br)cc2)cc1)C(=O)O)NCc1ccccc1 , strictly under 7 µM or not?
T

Please check: IC50 for O=C(CC[C@H](NS(=O)(=O)c1ccc(-c2ccccc2)cc1)C(=O)O)NCc1ccccc1 , strictly under 7 µM or not?
T

Please check: IC50 for CC(C)NC(=O)CC[C@H](NS(=O)(=O)c1ccc(-c2ccccc2)cc1)C(=O)O , strictly under 7 µM or not?
F

Please check: IC50 for O=C(CC[C@H](NS(=O)(=O)c1ccc(-c2ccccc2)cc1)C(=O)O)NCc1cc(C(F)(F)F)cc(C(F)(F)F)c1 , strictly under 7 µM or not?
T

Please check: IC50 for O=C(CC[C@H](NS(=O)(=O)c1ccc(-c2ccccc2)cc1)C(=O)O)NCc1ccccc1Cl , strictly under 7 µM or not?
T

Please check: IC50 for CCCCCNC(=O)CC[C@H](NS(=O)(=O)c1ccc(-c2ccccc2)cc1)C(=O)O , strictly under 7 µM or not?
T

Please check: IC50 for O=C(CC[C@H](NS(=O)(=O)c1ccc(-c2ccccc2)cc1)C(=O)O)Nc1ccccc1 , strictly under 7 µM or not?
T

Please check: IC50 for COc1ccc(CNC(=O)CC[C@H](NS(=O)(=O)c2ccc(-c3ccccc3)cc2)C(=O)O)cc1 , strictly under 7 µM or not?
T

---

- target.entity: Macrophage metalloelastase (Homo sapiens)
- Sequence (P39900 whole entry): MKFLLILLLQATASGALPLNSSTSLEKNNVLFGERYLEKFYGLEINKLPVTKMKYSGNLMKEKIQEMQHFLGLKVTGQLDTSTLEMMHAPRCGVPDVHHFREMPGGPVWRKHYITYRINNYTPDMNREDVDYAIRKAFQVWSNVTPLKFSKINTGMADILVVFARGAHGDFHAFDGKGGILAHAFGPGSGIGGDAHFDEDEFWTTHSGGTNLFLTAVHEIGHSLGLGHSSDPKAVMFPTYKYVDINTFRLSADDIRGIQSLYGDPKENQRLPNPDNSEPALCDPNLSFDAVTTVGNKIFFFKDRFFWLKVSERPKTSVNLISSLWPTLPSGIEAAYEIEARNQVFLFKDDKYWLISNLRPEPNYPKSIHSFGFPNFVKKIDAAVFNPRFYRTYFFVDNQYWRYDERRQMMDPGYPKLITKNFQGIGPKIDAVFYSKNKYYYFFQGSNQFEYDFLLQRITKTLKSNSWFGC
observable: IC50 (µM)
Provide only the numeric value, understood in µM.

Below: 3 compounds and their reported IC50.
* O=C(CC[C@H](NS(=O)(=O)c1ccc(-c2ccccc2)cc1)C(=O)O)NCc1ccccc1Cl | 0.063
* O=C(CC[C@H](NS(=O)(=O)c1ccc(-c2ccccc2)cc1)C(=O)O)NCc1ccccc1 | 0.0532
* O=C(CC[C@H](NS(=O)(=O)c1ccc(-c2ccccc2)cc1)C(=O)O)NCCc1ccccc1 | 0.297

Shift focus to the following entry.
Tell me the measured IC50 of O=C(CC[C@H](NS(=O)(=O)c1ccc(-c2ccccc2)cc1)C(=O)O)NCc1ccc(F)cc1 , please.
0.084

---

- target.entity: Neutrophil collagenase (Homo sapiens)
- Sequence (P22894 whole entry): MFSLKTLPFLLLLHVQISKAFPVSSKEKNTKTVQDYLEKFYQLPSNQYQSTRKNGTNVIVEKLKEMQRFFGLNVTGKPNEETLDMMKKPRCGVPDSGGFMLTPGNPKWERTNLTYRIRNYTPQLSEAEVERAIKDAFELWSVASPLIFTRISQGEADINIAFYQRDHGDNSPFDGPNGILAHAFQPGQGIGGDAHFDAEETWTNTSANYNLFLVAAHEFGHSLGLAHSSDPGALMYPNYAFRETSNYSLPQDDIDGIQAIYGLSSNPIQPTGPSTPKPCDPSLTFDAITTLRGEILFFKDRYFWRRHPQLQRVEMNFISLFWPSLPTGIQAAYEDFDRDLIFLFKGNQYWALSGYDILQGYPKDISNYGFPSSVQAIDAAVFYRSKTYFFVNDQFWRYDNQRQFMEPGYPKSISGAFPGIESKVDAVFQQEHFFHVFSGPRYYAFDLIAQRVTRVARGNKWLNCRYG
Entries whose IC50 is below 80 nM take YES; entries at or above 80 nM take NO.

Recorded results for 5 molecules are shown here.
- O=C(CC[C@H](NS(=O)(=O)c1ccc(-c2ccccc2)cc1)C(=O)O)NCc1cc(C(F)(F)F)cc(C(F)(F)F)c1: NO
- CCCCCNC(=O)CC[C@H](NS(=O)(=O)c1ccc(-c2ccccc2)cc1)C(=O)O: YES
- O=C(CC[C@H](NS(=O)(=O)c1ccc(-c2ccccc2)cc1)C(=O)O)NCCc1ccccc1: NO
- CCCNC(=O)CC[C@H](NS(=O)(=O)c1ccc(-c2ccccc2)cc1)C(=O)O: YES
- O=C(CC[C@H](NS(=O)(=O)c1ccc(-c2ccccc2)cc1)C(=O)O)NCc1ccc(F)cc1: YES

Please check: IC50 for O=C(CC[C@H](NS(=O)(=O)c1ccc(-c2ccccc2)cc1)C(=O)O)Nc1ccccc1 , strictly under 80 nM or not?
YES

Please check: IC50 for CCCCNC(=O)CC[C@H](NS(=O)(=O)c1ccc(-c2ccccc2)cc1)C(=O)O , strictly under 80 nM or not?
YES

Please check: IC50 for O=C(CC[C@H](NS(=O)(=O)c1ccc(-c2ccccc2)cc1)C(=O)O)NC1CCCCC1 , strictly under 80 nM or not?
YES
